Source: patent EP1053246B1

target: thrombin (Bos taurus, UniProt P00735); assay: thrombin inhibition of solid phase synthesized mimetics; assay type: biochemical; settings: assayed as mixtures of diastereomers; read-out: Ki as thrombin inhibitors (asterisk at compound number)
pKi: −log10 of the molar value.

molecule	pKi
CC/C=C\CCC1C=CC(C(=O)NC(CCCCN)C(=O)C(=O)NCCc2ccc(C(N)=O)cc2)n2c(=O)n(CC(c3ccccc3)c3ccccc3)c(=O)n21 (stereo not shown) [compound 106]	> 8.00

* * *

molecular target: Activated Protein C (aPC) (Homo sapiens, UniProt P04070); assay: activated protein C inhibition assay (IC50, Example 4); conditions: footnote d: IC50
Sequence (P04070 43-197 limits assumed): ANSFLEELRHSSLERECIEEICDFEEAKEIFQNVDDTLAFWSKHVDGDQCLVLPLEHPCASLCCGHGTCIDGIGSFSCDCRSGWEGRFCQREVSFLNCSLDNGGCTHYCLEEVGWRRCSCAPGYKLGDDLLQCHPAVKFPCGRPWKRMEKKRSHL
Sequence (P04070 212-461 limits assumed): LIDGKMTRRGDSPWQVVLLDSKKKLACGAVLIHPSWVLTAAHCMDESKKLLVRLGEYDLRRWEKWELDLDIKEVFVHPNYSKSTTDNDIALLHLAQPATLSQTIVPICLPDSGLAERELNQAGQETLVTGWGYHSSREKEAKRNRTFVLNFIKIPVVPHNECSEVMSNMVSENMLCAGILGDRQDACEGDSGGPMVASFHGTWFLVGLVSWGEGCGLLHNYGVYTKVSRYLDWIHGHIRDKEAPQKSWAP
reported_endpoint: IC50 (nM)

> print(dat)
                                   compound  quantity.unit  observed.result
1  N=C(N)NCCC[C@H](NC(=O)[C@@H]1CCN2CC[C@@](N)(Cc3ccccc3)C(=O)N12)C(=O)CCl [Structure (13b)]             nM              528

* * *

target: thrombin-thrombomodulin complex (Bos taurus, UniProt P00735); test: thrombin-thrombomodulin complex inhibition assay (Ki); assay type: biochemical; conditions: thrombin preincubated with 4 nM thrombomodulin, read-out: Ki (M) T.T.C.
reported_endpoint: Ki (M)

> print(dat)
                                     smiles  observed.result
1  COC(=O)c1c[nH]c(C(=O)[C@H](CCCNC(=N)N)NC(=O)[C@@H]2CCN3CC[C@@](N)(Cc4ccccc4)C(=O)N23)n1          6.9e-09

* * *

molecular target: bovine factor Xa (Bos taurus, UniProt P00743); construct: bovine factor Xa (from Sigma); purchased Sigma; experiment: Factor X inhibition assay (IC50, Example 4); assay type: biochemical; conditions: footnote d: IC50; footnote e: bovine plasma; read-out: IC50 Factor X
Sequence (P00743 41-180 limits assumed): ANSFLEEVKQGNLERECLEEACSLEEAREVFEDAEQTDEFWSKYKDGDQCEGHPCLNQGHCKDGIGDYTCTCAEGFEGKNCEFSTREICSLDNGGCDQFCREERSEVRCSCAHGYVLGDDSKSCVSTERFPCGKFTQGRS
Sequence (P00743 234-492 limits assumed): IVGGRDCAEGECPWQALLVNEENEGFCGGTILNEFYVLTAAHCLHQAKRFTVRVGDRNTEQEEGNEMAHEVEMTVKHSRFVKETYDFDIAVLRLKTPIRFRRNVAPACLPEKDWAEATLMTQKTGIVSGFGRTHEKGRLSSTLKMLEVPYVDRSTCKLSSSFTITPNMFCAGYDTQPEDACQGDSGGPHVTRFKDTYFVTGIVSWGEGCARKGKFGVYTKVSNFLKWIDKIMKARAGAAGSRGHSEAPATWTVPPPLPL
reported_endpoint: IC50

> print(dat)
                                   compound  observed.result
1  N=C(N)NCCC[C@H](NC(=O)[C@@H]1CCN2CC[C@@](N)(Cc3ccccc3)C(=O)N12)C(=O)CCl [Structure (13b)]           386 nM

* * *

Listed next: entries and their corresponding pKi.
Target: UniProtKB P00760
Sequence (P00760 24-246): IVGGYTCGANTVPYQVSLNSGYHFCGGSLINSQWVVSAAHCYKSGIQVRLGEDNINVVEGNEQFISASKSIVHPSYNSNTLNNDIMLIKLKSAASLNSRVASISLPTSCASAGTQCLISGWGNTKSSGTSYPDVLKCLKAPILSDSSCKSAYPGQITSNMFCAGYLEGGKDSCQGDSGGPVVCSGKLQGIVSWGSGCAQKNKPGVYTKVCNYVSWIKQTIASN
pKi: −log10 of the molar value.
reported_endpoint: pKi

> print(dat)
                                   molecule  observed.result
1  N=C(N)NCCC[C@H](NC(=O)[C@@H]1CCN2CC[C@@](N)(Cc3ccccc3)C(=O)N12)C(=O)C(=O)NCCc1ccccc1 [Structure (35)]            10.57
2  N=C(N)NC(=O)NC[C@H](NC(=O)[C@@H]1CCN2CC[C@@](N)(Cc3ccccc3)C(=O)N12)C(=O)c1nc2ccccc2s1 [Structure (51)]             7.42
3  N=C(N)NCCC[C@H](NC(=O)[C@@H]1CCN2CC[C@@](N)(Cc3ccccc3)C(=O)N12)C(=O)c1nccs1 [Structure (47)]             8.72
